# System Under Test: human ALK5 (Homo sapiens)
# Construct: human ALK5 (recombinant TGF β1 N-term GST-tagged, 80-end); GST (N)
# Sequence (P36897 80-503 limits assumed): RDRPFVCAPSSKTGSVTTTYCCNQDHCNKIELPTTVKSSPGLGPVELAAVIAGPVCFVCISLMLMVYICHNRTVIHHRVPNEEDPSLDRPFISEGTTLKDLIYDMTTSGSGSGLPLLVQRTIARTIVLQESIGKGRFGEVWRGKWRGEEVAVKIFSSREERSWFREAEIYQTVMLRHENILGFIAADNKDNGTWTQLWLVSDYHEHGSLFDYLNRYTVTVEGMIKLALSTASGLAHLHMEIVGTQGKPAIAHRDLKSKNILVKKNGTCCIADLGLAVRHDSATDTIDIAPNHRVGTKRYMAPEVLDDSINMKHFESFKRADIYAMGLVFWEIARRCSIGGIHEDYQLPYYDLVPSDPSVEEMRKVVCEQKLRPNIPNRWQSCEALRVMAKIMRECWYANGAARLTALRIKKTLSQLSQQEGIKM
# Test: ADP-GLO Kinases assay of ALK5 enzymatic activity
# Condition Description: purified recombinant human ALK5, TGFβ1 peptide substrate, pIC50 converted to pKi by Cheng-Prusoff, high ATP protocol (15 μM) for very potent compounds, 25° C.
pKi: −log10 of the molar value.
Could you please report measured pKi for the items listed next?

Inquiry: Entry `O=C(Nc1cc(Nc2cc(-c3cc(Cl)ccc3F)nnc2SCCO)ccn1)[C@H]1C[C@@H](N2CCSCC2)C1` has what pKi?
Reply text: ≥ 10.00

Inquiry: Entry `CN1CCN([C@H]2C[C@@H](C(=O)Nc3cc(Nc4cc(-c5cc(Cl)ccc5F)nnc4OC[C@H]4C[C@@](C)(O)C4)ccn3)C2)CC1` has what pKi?
Reply text: ≥ 10.00

Inquiry: Entry `CN1CCN([C@H]2C[C@@H](C(=O)Nc3cc(Nc4cc(-c5cc(Cl)ccc5F)nnc4OCc4cccc(O)c4)ccn3)C2)CC1` has what pKi?
Reply text: ≥ 10.00

Inquiry: Entry COCC1(CN(C)c2nnc(-c3cc(Cl)ccc3F)cc2Nc2ccnc(NC(=O)CCN3CCN(C)CC3)c2)CCOC1=O (single isomer, unassigned) [Example 201] has what pKi?
Reply text: ≥ 10.00

Inquiry: Entry `CN1CCC(COC(=O)c2cccc(CSc3nnc(-c4cc(Cl)ccc4F)cc3Nc3ccnc4[nH]ccc34)c2)CC1` has what pKi?
Reply text: 9.50 to 9.90

Inquiry: Entry `COc1ccc2c(Nc3cc(-c4cc(Cl)ccc4F)nnc3OCCN(C)C)ccnc2c1` has what pKi?
Reply text: 8.50 to 9.40

Inquiry: Entry C[C@@H]1CN([C@H]2C[C@@H](C(=O)Nc3cc(Nc4cc(-c5cc(Cl)ccc5F)nnc4N(C)CC4(C)CCOC4=O)ncn3)C2)C[C@H](C)N1 (single isomer, unassigned) has what pKi?
Reply text: ≥ 10.00

Inquiry: Entry `COc1nnc(-c2cc(Cl)ccc2F)cc1Nc1ccnc(NC(=O)CCN2CCN(C)CC2)c1` has what pKi?
Reply text: ≥ 10.00

Inquiry: Entry `CN1CCN(CCOc2ccc3c(Nc4cc(-c5cc(Cl)ccc5F)nnc4OCC(F)F)ccnc3c2)CC1` has what pKi?
Reply text: ≥ 10.00

Inquiry: Entry `COc1nnc(-c2cc(Cl)ccc2F)cc1Nc1ccnc(N)c1` has what pKi?
Reply text: 9.50 to 9.90

Inquiry: Entry `Cc1oc(=O)oc1CSc1nnc(-c2cc(Cl)ccc2F)cc1Nc1ccnc(NC(=O)CCN2CCN(C)CC2)c1` has what pKi?
Reply text: ≥ 10.00

Inquiry: Entry `CSc1nnc(-c2cc(Cl)ccc2F)cc1Nc1ccnc(NC(=O)CCN2CCN(C)CC2)c1` has what pKi?
Reply text: ≥ 10.00

Inquiry: Entry `CN1CCN(CCC(=O)Nc2cc(Nc3cc(-c4cc(Cl)ccc4F)nnc3OCCN)ccn2)CC1` has what pKi?
Reply text: 9.50 to 9.90

Inquiry: Entry `COCCOc1nnc(-c2cc(Cl)ccc2F)cc1Nc1ccnc2cc(OCCN3CCN(C)CC3)ccc12` has what pKi?
Reply text: ≥ 10.00
